# tested.on: T1, polypeptide GC3pep (human)
# T1 construct: also called membrane proximal polypeptide GC3pep
# T1 peptide: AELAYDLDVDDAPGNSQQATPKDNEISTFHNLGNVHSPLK
# method.summary: ELISA, GC3pep coated, antibody 0.001 nM

[
  {
    "binder": "F1.83.6 (antibody, human IgG1, kappa, V domains shown, human-murine chimeric antibody) VH: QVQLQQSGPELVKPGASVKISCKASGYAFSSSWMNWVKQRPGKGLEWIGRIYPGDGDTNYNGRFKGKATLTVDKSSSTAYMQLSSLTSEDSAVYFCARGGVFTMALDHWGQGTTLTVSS VL: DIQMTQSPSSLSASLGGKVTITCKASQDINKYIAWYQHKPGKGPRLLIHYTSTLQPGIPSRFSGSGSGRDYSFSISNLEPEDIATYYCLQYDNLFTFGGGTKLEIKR",
    "OD450 nm [OD450 nm]": 0.05
  },
  {
    "binder": "F2.55.11 (antibody, human IgG1, kappa, V domains shown, human-murine chimeric antibody) VH: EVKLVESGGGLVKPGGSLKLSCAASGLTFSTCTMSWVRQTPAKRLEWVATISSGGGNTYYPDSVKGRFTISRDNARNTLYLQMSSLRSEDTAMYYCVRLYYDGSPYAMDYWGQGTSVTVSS VL: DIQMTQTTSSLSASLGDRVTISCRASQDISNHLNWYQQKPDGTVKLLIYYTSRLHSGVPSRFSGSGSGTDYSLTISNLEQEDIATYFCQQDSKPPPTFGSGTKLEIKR",
    "OD450 nm [OD450 nm]": 0.07
  }
]
